Assay: Mean residence time in mouse at 30 mg/kg, po
Assay type: ADME, organism-based
Design: dose 30 mg/kg, route oral
Conditions: in vivo
READOUT KIND: MRT
Write the numeric value and append its unit.

Input: MRT for `CNC(=O)c1ccc([C@]2(O)CCN(c3ccc(C#N)c(F)c3)[C@H]2C)cn1` ?
Output: 4.07 h

----------
READOUT KIND: pIC50
Here pIC50 is given on a logarithmic scale as minus log10 of the concentration in mol/L.

Input: // map N#Cc1ccc(N2CCC(O)(c3ccc(F)cc3)C2)cc1Cl (racemic) to recorded pIC50 (system: Androgen receptor (Homo sapiens, UniProt P10275, T878A))
Sequence (P10275 whole entry T878A): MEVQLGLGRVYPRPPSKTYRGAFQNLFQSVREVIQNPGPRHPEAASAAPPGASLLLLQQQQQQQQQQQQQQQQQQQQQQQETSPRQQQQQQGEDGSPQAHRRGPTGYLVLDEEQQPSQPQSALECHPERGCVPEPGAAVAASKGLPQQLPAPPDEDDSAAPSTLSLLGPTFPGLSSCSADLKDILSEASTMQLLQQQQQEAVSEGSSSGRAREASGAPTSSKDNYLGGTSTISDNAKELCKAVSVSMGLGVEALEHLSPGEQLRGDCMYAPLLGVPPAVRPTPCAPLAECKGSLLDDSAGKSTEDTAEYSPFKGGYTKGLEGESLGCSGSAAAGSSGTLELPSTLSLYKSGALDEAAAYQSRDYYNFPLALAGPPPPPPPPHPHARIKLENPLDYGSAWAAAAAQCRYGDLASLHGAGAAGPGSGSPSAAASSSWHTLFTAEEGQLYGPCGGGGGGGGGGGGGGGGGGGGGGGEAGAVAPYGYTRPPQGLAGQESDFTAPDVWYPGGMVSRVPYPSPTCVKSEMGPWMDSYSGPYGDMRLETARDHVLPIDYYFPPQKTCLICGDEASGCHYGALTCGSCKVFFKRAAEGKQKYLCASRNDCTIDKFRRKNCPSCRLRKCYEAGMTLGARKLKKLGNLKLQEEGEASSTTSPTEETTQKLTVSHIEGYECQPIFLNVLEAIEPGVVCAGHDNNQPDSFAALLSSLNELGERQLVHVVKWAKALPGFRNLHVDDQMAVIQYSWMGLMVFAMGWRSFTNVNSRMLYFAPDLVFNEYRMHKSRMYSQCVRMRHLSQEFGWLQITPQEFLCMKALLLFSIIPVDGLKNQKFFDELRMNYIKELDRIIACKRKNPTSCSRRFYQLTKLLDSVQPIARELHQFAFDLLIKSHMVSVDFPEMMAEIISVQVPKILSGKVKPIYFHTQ
Output: 7.19

Input: // map `CNC(=O)c1ccc([C@]2(O)CCN(c3ccc(C#N)c(Cl)c3)[C@H]2C)nc1` to recorded pIC50 (system: Androgen receptor (Homo sapiens, UniProt P10275, T878A))
Output: 7.00

Input: // map `CNC(=O)c1ccc([C@]2(O)CCN(c3ccc(C#N)c(OC)c3)[C@H]2C)cn1` to recorded pIC50 (system: Androgen receptor (Homo sapiens, UniProt P10275, T878A))
Output: 6.14

Input: // map `CNC(=O)c1ccc([C@]2(O)CCN(c3ccc(C#N)cc3)[C@H]2C)cn1` to recorded pIC50 (system: Androgen receptor (Homo sapiens, UniProt P10275, T878A))
Output: 5.85

Input: // map `C[C@@H]1N(c2ccc(C#N)c(Cl)c2)CC[C@@]1(O)c1ccc(N2CCCC2=O)nc1` to recorded pIC50 (system: Androgen receptor (Homo sapiens, UniProt P10275, T878A))
Output: 6.80

Input: // map `C[C@@H]1N(c2ccc(C#N)c(Cl)c2)CC[C@@]1(O)c1ccc(C(=O)N(C)C)nc1` to recorded pIC50 (system: Androgen receptor (Homo sapiens, UniProt P10275, T878A))
Output: 5.00

Input: // map `CNC(=O)c1ccc([C@@]2(O)CCN(c3ccc(C#N)c(Cl)c3)[C@@H]2C)cn1` to recorded pIC50 (system: Androgen receptor (Homo sapiens, UniProt P10275, T878A))
Output: 5.80

Input: // map `CNC(=O)c1ccc([C@]2(O)CCN(c3ccc(C#N)c(Cl)c3)[C@H]2C)cn1` to recorded pIC50 (system: Androgen receptor (Homo sapiens, UniProt P10275, T878A))
Output: 7.00

Input: // map `CNC(=O)c1ccc([C@]2(O)CCN(c3ccc(C#N)c(F)c3)[C@H]2C)cn1` to recorded pIC50 (system: Androgen receptor (Homo sapiens, UniProt P10275, T878A))
Output: 5.77

Input: // map N#Cc1ccc(N2CCC(O)(c3ccccc3)C2)cc1Cl (racemic) to recorded pIC50 (system: Androgen receptor (Homo sapiens, UniProt P10275, T878A))
Output: 6.60
